Could you please report measured MAVE (Maximum Acceptable Viability Exposure) for the items listed next?
- Tested on: human iPSC-CM (iCell Cardiomyocytes)
- Assay protocol: Dose-response cell viability (CellTiter-Fluor) in iPSC-derived cardiomyocytes, maximum acceptable viability exposure
- Assay type: cell-based
- Condition details: human
Numbers only, in µM.

- Compound: "COc1ccc(C(=O)Nc2ccccc2CCC2CCCCN2C)cc1 (stereo not drawn) [Encainide]"
  Val: 100
- Compound: "O=C1O[C@H]([C@@H](O)CO)C(O)=C1O"
  Val: 100
- Compound: "COc1cc(N)c(Cl)cc1C(=O)NC1CCN(CCCOc2ccc(F)cc2)CC1OC (stereo not drawn) [Cisapride]"
  Val: 100
- Compound: "Cc1onc(-c2ccccc2)c1-c1ccc(S(N)(=O)=O)cc1"
  Val: 100
- Compound: "CC(C)C[C@H](NC(=O)[C@H](Cc1ccccc1)NC(=O)c1cnccn1)B(O)O"
  Val: 0.1

Field: MAVE (Maximum Acceptable Viability Exposure). Fill in for each record below.
1. C#Cc1cccc(Nc2ncnc3cc(OCCOC)c(OCCOC)cc23)c1
2. CNCCC=C1c2ccccc2CCc2ccccc21
3. CC(C)(C)c1ccc(C(O)CCCN2CCC(C(O)(c3ccccc3)c3ccccc3)CC2)cc1 (stereo not drawn)
4. CC(C)NCC(O)c1ccc(O)c(O)c1 (stereo not drawn)

Ans.
1: 3; 2: 1; 3: 3; 4: 100

* * *

- Tested on: human iPSC-CM (iCell Cardiomyocytes)
- Assay protocol: Dose-response cell viability (CellTiter-Fluor) in iPSC-derived cardiomyocytes, maximum acceptable viability exposure
- Assay type: cell-based
- Condition details: human
- Method: Metabolomic data was acquired to identify non-cytotoxic exposure levels and identify biomarkers of cardiotoxicity from a dose-response experiment using spent medium of iPSC-CM treated with 53 of the compounds in the training set. […] Spent media was collected for LC-MS analysis and cell viability was assessed with the CellTiter-Fluor Cell Viability Assay (Promega). Spent media samples were prepared and analyzed using the methods developed in Specific Aim 1. […]
Kindly state MAVE (Maximum Acceptable Viability Exposure) for each of the entries shown.
One number for each entry, in µM.

- Compound: "CCCN1C[C@H](CSC)C[C@@H]2c3cccc4[nH]cc(c34)C[C@H]21 [Pergolide]"
  Val: 30
- Compound: "CN(C)CCC=C1c2ccccc2CCc2ccccc21 [Amitriptyline]"
  Val: 1
- Compound: "Nc1nc2c(ncn2COCCO)c(=O)[nH]1 [Acyclovir]"
  Val: 100
- Compound: "CCN1/C(=C/C=C/C=C/c2sc3ccccc3[n+]2CC)Sc2ccccc21 [Dithiazanine Iodide]"
  Val: 0.1

The record that follows has no MAVE (Maximum Acceptable Viability Exposure) shown yet.
Qu. State the recorded MAVE (Maximum Acceptable Viability Exposure) for this entry: O=C(O)CC(O)(CC(=O)O)C(=O)O [Citric Acid]
Ans. 100

* * *

- Test system: human iPSC-CM (iCell Cardiomyocytes2)
- Assay protocol: Spent-media metabolomics (LC-MS) cardiotoxicity prediction models, blinded test set
- Condition details: functional vs general/structural cardiotoxicants, at the Exposure (μM) listed per compound in Table 3

- Molecule: "CCOC(=O)N1CCC(=C2c3ccc(Cl)cc3CCc3cccnc32)CC1 [Loratadine]"
  System under test: "human iPSC-CM (iCell Cardiomyocytes2)"
  Functional Model Prediction: "−"
- Molecule: "OC[C@@H](O)[C@H](O)[C@@H](O)CO [Xylitol]"
  System under test: "human iPSC-CM (iCell Cardiomyocytes2)"
  Functional Model Prediction: "−"
- Molecule: "CC(C)NCC(O)c1ccc(NS(C)(=O)=O)cc1 (stereo not drawn) [Sotalol]"
  System under test: "human iPSC-CM (iCell Cardiomyocytes2)"
  Functional Model Prediction: "+"

* * *

- Test system: human iPSC-CM (iCell Cardiomyocytes)
- Assay protocol: Dose-response cell viability (CellTiter-Fluor) in iPSC-derived cardiomyocytes, maximum acceptable viability exposure
- Type: cell-based
- Condition details: human
Readout: MAVE (Maximum Acceptable Viability Exposure) (µM)
Give bare numbers, in µM.

Fill in MAVE (Maximum Acceptable Viability Exposure) for each of the 3 molecules listed.
1. CC(C)C[C@H](N)C(=O)O
2. O=C(O)C(O)C(O)C(=O)O (stereo not drawn)
3. CN(C)CCN(Cc1cccs1)c1ccccn1

Ans.
[100, 100, 100]

* * *

- System: human iPSC-CM (iCell Cardiomyocytes)
- Assay protocol: Dose-response cell viability (CellTiter-Fluor) in iPSC-derived cardiomyocytes, maximum acceptable viability exposure
- Format: cell-based
- Condition details: human
Where a SMILES comes first, the peptide text is derived from it.
Readout: MAVE (Maximum Acceptable Viability Exposure)
Kindly write the number and append the unit.

- Compound: "COC(=O)[C@H](Cc1ccccc1)NC(=O)[C@@H](N)CC(=O)O [Aspartame] (H-Asp-Phe-OMe)"
  Val: "100 µM"
- Compound: "CCN[C@@H](C)Cc1cccc(C(F)(F)F)c1"
  Val: "30 µM"
- Compound: "CC(=O)[C@]1(O)Cc2c(O)c3c(c(O)c2[C@@H](O[C@H]2C[C@H](N)[C@H](O)[C@H](C)O2)C1)C(=O)c1ccccc1C3=O"
  Val: "0.1 µM"
- Compound: "CC(=O)O[C@H]1C(=O)[C@@]2(C)[C@H]([C@H](OC(=O)c3ccccc3)[C@]3(O)C[C@H](OC(=O)[C@H](O)[C@@H](NC(=O)c4ccccc4)c4ccccc4)C(C)=C1C3(C)C)[C@]1(OC(C)=O)CO[C@@H]1C[C@@H]2O"
  Val: "0.03 µM"
- Compound: "CC1(C)S[C@@H]2[C@H](NC(=O)[C@H](N)c3ccc(O)cc3)C(=O)N2[C@H]1C(=O)O"
  Val: "100 µM"
- Compound: "COC(=O)c1ccc(O)cc1"
  Val: "100 µM"

I would be grateful if you could provide MAVE (Maximum Acceptable Viability Exposure) for each of the following entries.
1. CS(=O)(=O)c1ccc(C2=C(c3ccccc3)C(=O)OC2)cc1
2. O=C1CN2Cc3c(ccc(Cl)c3Cl)N=C2N1 [Anagrelide]
3. CNC(=O)c1cc(Oc2ccc(NC(=O)Nc3ccc(Cl)c(C(F)(F)F)c3)cc2)ccn1
4. O=C(O)c1ccccc1
5. CCCCCCc1ccc(O)cc1O
6. C[C@@H]1C/C=C/C=C/C=C/C=C/[C@H](O[C@@H]2O[C@H](C)[C@@H](O)[C@H](N)[C@@H]2O)C[C@@H]2O[C@](O)(C[C@@H](O)C[C@H]3O[C@@H]3/C=C/C(=O)O1)C[C@H](O)[C@H]2C(=O)O
7. O=C1c2c(O)ccc(O)c2C(=O)c2c(NCCNCCO)ccc(NCCNCCO)c21

Ans.
1. 100 µM
2. 30 µM
3. 3 µM
4. 100 µM
5. 30 µM
6. 30 µM
7. 1 µM

Dear colleague, could you please provide MAVE (Maximum Acceptable Viability Exposure) for the compounds listed below?
1. CCN(CC)CCCC(C)Nc1ccnc2cc(Cl)ccc12 (centres unmarked)
2. CCN(CC)CCNC(=O)c1c(C)[nH]c(/C=C2\C(=O)Nc3ccc(F)cc32)c1C
3. CCCOC(=O)c1cc(O)c(O)c(O)c1 [Propyl Gallate]
4. CN(CCOc1ccc(NS(C)(=O)=O)cc1)CCc1ccc(NS(C)(=O)=O)cc1 [Dofetilide]
5. COc1cccc2c1C(=O)c1c(O)c3c(c(O)c1C2=O)C[C@@](O)(C(=O)CO)C[C@@H]3O[C@H]1C[C@H](N)[C@H](O)[C@H](C)O1
6. CS(=O)(=O)CCNCc1ccc(-c2ccc3ncnc(Nc4ccc(OCc5cccc(F)c5)c(Cl)c4)c3c2)o1

Ans.
1. 3 µM
2. 1 µM
3. 30 µM
4. 100 µM
5. 0.1 µM
6. 10 µM

Provide MAVE (Maximum Acceptable Viability Exposure) values for the following items, in order.
1. Cc1ccc(NC(=O)c2ccc(CN3CCN(C)CC3)cc2)cc1Nc1nccc(-c2cccnc2)n1
2. c1ccc2[nH]c(-c3cscn3)nc2c1
3. COc1ccc(CCN2CCC(Nc3nc4ccccc4n3Cc3ccc(F)cc3)CC2)cc1
4. Cc1occc(=O)c1O
5. Cc1nc(Nc2ncc(C(=O)Nc3c(C)cccc3Cl)s2)cc(N2CCN(CCO)CC2)n1
6. CNC(=C[N+](=O)[O-])NCCSCc1ccc(CN(C)C)o1
7. O=C1NCCN1CCN1CCC(c2cn(-c3ccc(F)cc3)c3ccc(Cl)cc23)CC1

Ans.
1: 3 µM; 2: 100 µM; 3: 3 µM; 4: 100 µM; 5: 10 µM; 6: 100 µM; 7: 0.3 µM

Give MAVE (Maximum Acceptable Viability Exposure) for each of the items listed below.
1. CN1CCN(C2=Nc3cc(Cl)ccc3Nc3ccccc32)CC1
2. COc1cc2c(Nc3ccc(Br)cc3F)ncnc2cc1OCC1CCN(C)CC1
3. CSc1ccc2c(c1)N(CCC1CCCCN1C)c1ccccc1S2 (centres unmarked)

Ans.
1. 10 µM
2. 1 µM
3. 1 µM

// provenance: patent US20250264459A1
